- System: DLD-1
- experiment summary: NCI tumour cell line growth inhibition, 48 h
Calls of active or inactive are those of the source. Rule as the data show it: active = GI50 up to about 1.1 µM and inactive = higher.
measurement label: GI50

The measured GI50 associated with Cc1cc(O)nc(CNC(=O)c2ccc3ccccc3c2)n1 reads > 100 µM (inactive)

The measured GI50 associated with COc1cc2c(c(O)c1O)-c1ccc(OC)c(=O)cc1C(NC(C)=O)CC2 (centres undefined) reads 29.6 µM (inactive)

The measured GI50 associated with O=c1nc(NC2CCCCO2)ccn1CCO (centres undefined) reads > 100 µM (inactive)

The measured GI50 associated with COC(=O)c1ccccc1N(C(=O)c1ccccc1)c1ccccc1C reads 43 µM (inactive)
